Each recorded value in this set is attributed to patent US20220323406A1.

- Tested on: ENR+CD organoids (ISC to Paneth cell differentiation)
- assay.summary: Primary screen: CCh-stimulated lysozyme secretion LYZ.S, 2.5-D 384-well ENR+CD organoid differentiation
- Type: cell-based, mouse
- condition: primary screen, dose 2.00 uM
metric.name: Dose.FC.LYZ.S (log2 fold change)
Just the number.

Exam item: Recorded Dose.FC.LYZ.S (log2 fold change) for O=C(C[S+]([O-])Cc1ccco1)NC/C=C\COc1cc(CN2CCCCC2)ccn1 (centres unmarked) with ENR+CD organoids (ISC to Paneth cell differentiation), please?
Marked response: 0.076

Exam item: Recorded Dose.FC.LYZ.S (log2 fold change) for Cc1cc(Nc2cc(CN3CCOCC3)c3nc(C)c(Cc4ccc(Cl)cc4F)n3n2)n[nH]1 with ENR+CD organoids (ISC to Paneth cell differentiation), please?
Marked response: 0.114

Exam item: Recorded Dose.FC.LYZ.S (log2 fold change) for O=C(c1cn(Cc2cncn2Cc2ccc(Br)cc2)cc1-c1cccc2ccccc12)N1CCOCC1 with ENR+CD organoids (ISC to Paneth cell differentiation), please?
Marked response: −0.238

Exam item: Recorded Dose.FC.LYZ.S (log2 fold change) for CNC(=O)[C@H](Cc1c[nH]c2ccccc12)NC(=O)[C@@H](CC(=O)NO)CC(C)C with ENR+CD organoids (ISC to Paneth cell differentiation), please?
Marked response: 0.024

Exam item: Recorded Dose.FC.LYZ.S (log2 fold change) for C[C@H](NC(=O)[C@@H](O)c1cc(F)cc(F)c1)C(=O)N[C@@H]1C(=O)N(C)c2ccccc2-c2ccccc21 with ENR+CD organoids (ISC to Paneth cell differentiation), please?
Marked response: −0.091

Exam item: Recorded Dose.FC.LYZ.S (log2 fold change) for O=C(Nc1ccccc1)N1CCN(c2nc(-c3ccccc3)ns2)CC1 with ENR+CD organoids (ISC to Paneth cell differentiation), please?
Marked response: −0.063

Continuing:
Exam item: Recorded Dose.FC.LYZ.S (log2 fold change) for CCn1c(=O)c2c(nc(/C=C/c3ccc(OC)c(OC)c3)n2C)n(CC)c1=O with ENR+CD organoids (ISC to Paneth cell differentiation), please?
Marked response: −0.096

Exam item: Recorded Dose.FC.LYZ.S (log2 fold change) for Clc1ccc(N/N=C(\c2ccccc2)c2ccccn2)nc1 with ENR+CD organoids (ISC to Paneth cell differentiation), please?
Marked response: −0.056
